system: SK-OV-3; assay: NCI tumour cell line growth inhibition, 48 h
Activity calls are given as the source filed them. Cut-off read from the data, not from the text of the source: active = GI50 up to about 1.1 µM and inactive = higher.
In this section, each of the molecules is paired with its reported GI50.

Answered examples (10):
{"molecule": "Cc1ccc(-c2cc(=O)c3cc(C)c(C)c(C(=O)O)c3o2)cc1N", "measure-name": "GI50", "test-value": "> 100 µM (inactive)"}
{"molecule": "Cc1ccc2nc(-c3ccc(N)c(Br)c3)sc2c1", "measure-name": "GI50", "test-value": "22.5 µM (inactive)"}
{"molecule": "COc1c(C)c(OC)c(C(=O)CC(C)C)c(OC)c1C", "measure-name": "GI50", "test-value": "> 100 µM (inactive)"}
{"molecule": "O=C1C(Cl)N(c2c(Cl)cccc2Cl)C1c1c[nH]c2ccccc12 (stereo not given)", "measure-name": "GI50", "test-value": "> 100 µM (inactive)"}
{"molecule": "CCCCCCCCCCCCCCCCOCC(CCl)OP(=O)(O)OP(=O)(O)OCC1OC(n2ccc(N)nc2=O)C(O)C1O (stereo not given)", "measure-name": "GI50", "test-value": "> 100 µM (inactive)"}
{"molecule": "O=C1Nc2cc(Cl)ccc2N=CC1NC(=O)C(c1ccccc1)c1ccccc1Cl (stereo not given)", "measure-name": "GI50", "test-value": "> 100 µM (inactive)"}
{"molecule": "CC(=O)C1C(c2ccccc2)C2(C)OC(=O)C(C#N)C12C (stereo not given)", "measure-name": "GI50", "test-value": "> 100 µM (inactive)"}
{"molecule": "CC(C)CN1CN(c2ccccc2)C2(CCN(CC(C)(c3ccc(F)cc3)C3OCCO3)CC2)C1=O (stereo not given)", "measure-name": "GI50", "test-value": "3.89 µM (inactive)"}
{"molecule": "CCCCCCCCCCCC1CCCC(C)N1 (stereo not given)", "measure-name": "GI50", "test-value": "75.2 µM (inactive)"}
{"molecule": "O=S(=O)(O)c1c(/N=N/c2c(O)ccc3ccccc23)ccc2ccccc12", "measure-name": "GI50", "test-value": "79.8 µM (inactive)"}

Item CC(=O)O[C@H]1CC[C@@]2(C)C(=C[C@H](c3ccc(O)cc3)[C@H]3[C@@H]4CC[C@H](OC(C)=O)[C@@]4(C)CC[C@@H]32)C1 has what recorded GI50?
> 100 µM (inactive)

Item O=c1n(Cc2ccccc2)c(=O)n2c(=O)n(Cc3ccccc3)c(=O)n12 has what recorded GI50?
> 100 µM (inactive)

Item CN(C)CCNC(=O)c1cccc2nc3c(ccc4ccccc43)nc12 has what recorded GI50?
5.42 µM (inactive)

Item O=C(/C=C/c1ccc(Cl)c(Cl)c1)c1ccc(F)cc1 has what recorded GI50?
29 µM (inactive)

Item C/C(=N\NS(=O)(=O)c1ccc(C)cc1)C(CN1CCOCC1)C(c1ccccc1)c1c(O)c2ccccc2oc1=O (stereo not given) has what recorded GI50?
> 100 µM (inactive)

Item CN(C)CC1CC/C(=C\c2ccc(Cl)c(Cl)c2)C1=O (stereo not given) has what recorded GI50?
> 100 µM (inactive)

Item COCOCCC#CCO has what recorded GI50?
> 100 µM (inactive)

Item CCOC(CBr)OC1C(=O)OCC1(C)C (stereo not given) has what recorded GI50?
> 100 µM (inactive)

Item C/C(=C/C(=O)N(C)c1ccccc1Cl)O[Si](C(C)C)(C(C)C)C(C)C has what recorded GI50?
34.2 µM (inactive)

Item CC(=O)O[C@H]1C(=O)[C@@]2(C)[C@H]([C@H](OC(=O)c3ccc([N+](=O)[O-])cc3)[C@]3(O)C[C@H](OC(=O)[C@H](O)[C@@H](NC(=O)c4ccccc4)c4ccccc4)C(C)=C1C3(C)C)[C@]1(OC(C)=O)CO[C@@H]1C[C@@H]2O has what recorded GI50?
> 25 µM (inactive)

###

system: SK-MEL-5; assay: NCI tumour cell line growth inhibition, 48 h
Activity calls are given as the source filed them. Rule as the data show it: active = GI50 up to about 1.1 µM and inactive = higher.
In this section, each of the compounds is paired with its reported GI50.

Answered examples (3):
{"compound": "O=[N+]([O-])/C(C(Cl)=C(Cl)Cl)=C(\\N1CCCCC1)n1cncn1", "test-value": "12.6 µM (inactive)"}
{"compound": "CCOC(=O)c1sc2nc(SC)nc(Nc3ccc4c(c3)OCCCO4)c2c1N", "test-value": "3.29 µM (inactive)"}
{"compound": "O=C(NCCC(F)(F)C(F)(F)C(F)(F)C(F)(F)F)NC1OC(CO)C(O)C(O)C1O (stereo unspecified)", "test-value": "> 100 µM (inactive)"}

For the record O=C(NCCO)c1ccc([N+](=O)[O-])cc1 , what value of GI50 is listed for SK-MEL-5?
> 100 µM (inactive)

For the record CCCCCCCCCCCCCCCCNCCCN(C)CCCN , what value of GI50 is listed for SK-MEL-5?
16 µM (inactive)

For the record O=C(CC(=O)Nc1cccc(Cl)c1)NNCC(=O)Nc1nnc(-c2ccccc2)s1 , what value of GI50 is listed for SK-MEL-5?
45.8 µM (inactive)

For the record CCC/C(C)=N/NC(=S)SC.CCC/C(C)=N/NC(=S)SC.[Zn+2] , what value of GI50 is listed for SK-MEL-5?
11.2 µM (inactive)

For the record Cc1cccc(-c2nc(-c3cnccn3)n(Cc3ccccc3)n2)c1 , what value of GI50 is listed for SK-MEL-5?
> 100 µM (inactive)

For the record [N-]=[N+]=CC(=O)OC(CCl)CCl , what value of GI50 is listed for SK-MEL-5?
46.3 µM (inactive)

For the record CN(C)C1(C(=O)O)CC1 , what value of GI50 is listed for SK-MEL-5?
> 100 µM (inactive)

For the record C[C@@]12CC[C@H]3[C@@H]4CCC(=O)N[C@@]4(C)CC[C@@H]3[C@@]1(C)CC[C@H](OC(=O)Cc1ccc(N(CCCl)CCCl)cc1)C2 , what value of GI50 is listed for SK-MEL-5?
13.7 µM (inactive)

For the record CN1CCC2(CC1)C(=O)N(N1CCCCCC1)C(=O)N2c1ccccc1 , what value of GI50 is listed for SK-MEL-5?
> 100 µM (inactive)

###

tested on: SF-295; test: NCI tumour cell line growth inhibition, 48 h
Active and inactive are the calls of the source. Rule as the data show it: active = GI50 up to about 1.1 µM and inactive = higher.
Returns: one label drawn from 1 for active, 0 for inactive

Use these answered entries as a reference point.
{"compound": "Cc1nc2cc([N+](=O)[O-])ccc2c(NCCCN(C)C)c1C", "discrete-label": 0}
{"compound": "Cc1c(-c2ccccc2)c(C#N)c2nnn(-c3ccc(Cl)cc3)c(=O)n12", "discrete-label": 0}
{"compound": "Nc1nc(Cl)c2ncn(Cc3ccccc3CCl)c2n1", "discrete-label": 0}
{"compound": "Oc1nc2c(c(-c3ccc(F)cc3)n1)COC/C2=C\\c1ccc(F)cc1", "discrete-label": 0}
{"compound": "COC(=O)c1cc2c3c(ccc2[nH]1)N(C(=O)c1cc2cc(OC)c(OC)c(OC)c2[nH]1)CC3CCl (stereo not given)", "discrete-label": 0}

Record lookup: outcome of this test for CCN(CC)CCCC(C)Nc1ccnc2ccc3nn(C)nc3c12 (stereo not given) ?
0

Record lookup: outcome of this test for C[C@]12CCC(=O)C=C1CC[C@@H]1[C@@H]2CC[C@]2(C)C(=O)NC(=O)C[C@@H]12 ?
0

Record lookup: outcome of this test for Cc1ccc(-c2cc(=O)c3cc(C)c(C)c(C(=O)O)c3o2)cc1N ?
0

Record lookup: outcome of this test for c1c2c(cc3c1OCO3)-c1cc3ccc4c(c3c[n+]1CC2)OCO4 [COPTISINE CHLORIDE] ?
1

Record lookup: outcome of this test for Cc1nc(O)nc2nc3ccc(Cl)cc3c(NC(C)(CO)CO)c12 ?
0

###

tested on: PC-3; assay: NCI tumour cell line growth inhibition, 48 h
Calls of active or inactive are those of the source. Cut-off read from the data, not from the text of the source: active = GI50 up to about 1.1 µM and inactive = higher. Where a SMILES comes first, the peptide text is derived from it. The star is where a group is joined. Boc = CC(C)(C)OC(=O)*; OSu = O=C1CCC(=O)N1O*
measure-name: GI50

Answered examples (3):
{"molecule": "CC(C)(C)OC(=O)NC(Cc1ccc(O)cc1)C(=O)NC(CCCCN)C(=O)NC(Cc1ccc(O)cc1)C(=O)NC(CCCCN)C(=O)ON1C(=O)CCC1=O (centres undefined) (Boc-YKYK-OSu; configuration not given here)", "test-value": "> 100 µM (inactive)"}
{"molecule": "COc1ccc(N2C(=O)C3c4[nH]c5ccc(OC)cc5c4C4CCC(c5ccccc5)CC4C3C2=O)cc1 (centres undefined)", "test-value": "19.2 µM (inactive)"}
{"molecule": "COc1ccc2c(c1)-c1c(c3cc(OC)ccc3n1CCCN(C)C)CC2", "test-value": "10.3 µM (inactive)"}

Okay, next one:
Item N#CCN(Cc1ccccc1)[C@@H]1CCC[C@]1(O)C#Cc1ccc2c(c1)OCO2 has what recorded GI50?
19.7 µM (inactive)
